Target: T1, purified human glycophorin A protein (Sigma, cat # G5017) (human, UniProt P02724 20-150)
T1 construct: mature; also called Sigma hGPA; Sigma GPA
T1 sequence (looked up): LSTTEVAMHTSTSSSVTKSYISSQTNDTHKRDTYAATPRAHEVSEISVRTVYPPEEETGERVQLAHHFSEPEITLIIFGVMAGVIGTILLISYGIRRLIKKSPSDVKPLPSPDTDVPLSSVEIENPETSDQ
Experiment: ELISA, native hGPA

binder: TPP-5323 (Fab, V domains shown, also called VH: (D56G)) VH: EVQLVQSGAEVKKPGASVKVSCKASGYTFTTYTIHWVRQAPGQGLEWIGYINPSSGYTRYNPKFKDRVTLTTDKSTSTAYMELRSLRSDDTAVYYCQTGTRDYWGQGTTVTVSS VL: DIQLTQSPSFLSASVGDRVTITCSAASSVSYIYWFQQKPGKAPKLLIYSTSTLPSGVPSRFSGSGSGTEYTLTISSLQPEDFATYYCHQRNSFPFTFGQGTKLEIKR
binding by ELISA relative to parental: 1.49
--
binder: TPP-5319 (Fab, V domains shown, also called VH: (I34M)) VH: EVQLVQSGAEVKKPGASVKVSCKASGYTFTTYTMHWVRQAPGQGLEWIGYINPSSDYTRYNPKFKDRVTLTTDKSTSTAYMELRSLRSDDTAVYYCQTGTRDYWGQGTTVTVSS VL: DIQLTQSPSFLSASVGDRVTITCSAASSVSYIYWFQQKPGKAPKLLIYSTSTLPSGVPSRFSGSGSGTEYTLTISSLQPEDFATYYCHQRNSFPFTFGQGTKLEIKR
binding by ELISA relative to parental: 0.99
